Values compiled from ChEMBL document CHEMBL1154934.

test: Oral bioavailability in rat at 0.5 mg/kg
Format: ADME, organism-based
protocol_conditions: in vivo
result_type: bioavailability (%)

- input_smiles: "C[C@H]1CN(C(=O)c2ccc(-c3ccccc3F)cc2)CCN1C(=O)c1ccc2cc[nH]c2c1"
  result_type: "bioavailability"
  output_unit: "%"
  result_number: 17

----------
tested_on: Growth hormone secretagogue receptor type 1 (Homo sapiens, UniProt Q92847)
Sequence (Q92847 whole entry): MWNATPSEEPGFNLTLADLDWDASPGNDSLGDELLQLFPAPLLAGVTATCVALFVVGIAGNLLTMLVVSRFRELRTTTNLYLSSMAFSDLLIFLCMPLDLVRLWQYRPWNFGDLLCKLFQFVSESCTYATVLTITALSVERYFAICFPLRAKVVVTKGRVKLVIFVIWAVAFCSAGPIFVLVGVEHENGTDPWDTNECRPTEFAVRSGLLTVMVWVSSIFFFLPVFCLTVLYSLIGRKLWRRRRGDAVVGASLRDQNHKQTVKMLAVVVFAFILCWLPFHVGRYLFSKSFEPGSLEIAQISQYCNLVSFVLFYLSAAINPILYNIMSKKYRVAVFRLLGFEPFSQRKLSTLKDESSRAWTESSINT
test: Antagonist activity at human GHSR expressed in CHOK1 cells assessed as inhibition of ghrelin-induced intracellular calcium flux by aequorin flash luminescence assay

- input_smiles: "C[C@H]1CN(C(=O)c2ccc(-c3cccc(C(F)(F)F)c3)cc2)CCN1C(=O)c1ccc2cc[nH]c2c1"
  IC50 (nM): 77
- input_smiles: "C[C@H]1CN(C(=O)c2ccc(-c3ccccc3Cl)cc2)CCN1C(=O)c1ccc2cc[nH]c2c1"
  IC50 (nM): 2.1
- input_smiles: "Cc1ccccc1-c1ccc(C(=O)N2CCN(C(=O)c3ccc4cc[nH]c4c3)[C@@H](C)C2)cc1F"
  IC50 (nM): 9
- input_smiles: "Cc1noc(C)c1-c1ccc(C(=O)N2CCN(C(=O)c3ccc4cc[nH]c4c3)[C@@H](C)C2)cc1"
  IC50 (nM): 245
- input_smiles: "C[C@H]1CN(C(=O)c2ccc(-c3cncs3)cc2)CCN1C(=O)c1ccc2cc[nH]c2c1"
  IC50 (nM): 65
- input_smiles: "C[C@H]1CN(C(=O)c2ccc(-c3ccc(OC(F)(F)F)cc3)cc2)CCN1C(=O)c1ccc2cc[nH]c2c1"
  IC50 (nM): 136
- input_smiles: "C[C@H]1CN(C(=O)c2csc(-c3ccccc3F)n2)CCN1C(=O)c1ccc2cc[nH]c2c1"
  IC50 (nM): 33.7
- input_smiles: "C[C@H]1CN(C(=O)c2ccc(-c3ccncc3)c(F)c2)CCN1C(=O)c1ccc2cc[nH]c2c1"
  IC50 (nM): 12.2
- input_smiles: "C[C@H]1CN(C(=O)c2ccc(-c3ccccc3)cc2F)CCN1C(=O)c1ccc2cc[nH]c2c1"
  IC50 (nM): 17.7
- input_smiles: "C[C@H]1CN(C(=O)c2ccc(-c3ccccc3)nc2)CCN1C(=O)c1ccc2cc[nH]c2c1"
  IC50 (nM): 20
- input_smiles: "COc1cccc(-c2ccc(C(=O)N3CCN(C(=O)c4ccc5cc[nH]c5c4)CC3)cc2)c1"
  IC50 (nM): 25
- input_smiles: "C[C@H]1CN(C(=O)c2ccc(-c3ccc(F)cc3)cc2)CCN1C(=O)c1ccc2cc[nH]c2c1"
  IC50 (nM): 64
- input_smiles: "O=C(c1ccc(-c2ccccc2)cc1)N1CCN(C(=O)c2ccc3cc[nH]c3c2)CC1"
  IC50 (nM): 100
- input_smiles: "C[C@H]1CN(C(=O)c2ccc(-c3cccnc3)cc2)CCN1C(=O)c1ccc2cc[nH]c2c1"
  IC50 (nM): 143
- input_smiles: "C[C@H]1CN(C(=O)c2ccc(-c3ccccc3)cc2)CCN1C(=O)c1ccc2cc[nH]c2c1"
  IC50 (nM): 6
- input_smiles: "COc1cccc(-c2ccc(C(=O)N3CCN(C(=O)c4ccc5cc[nH]c5c4)C[C@@H]3C)cc2)c1"
  IC50 (nM): 280
- input_smiles: "COc1cccc(-c2ccc(C(=O)N3CCN(C(=O)c4ccc5cc[nH]c5c4)[C@@H](C)C3)cc2)c1"
  IC50 (nM): 12
- input_smiles: "C[C@H]1CN(C(=O)c2ccc(-c3ccccn3)cc2)CCN1C(=O)c1ccc2cc[nH]c2c1"
  IC50 (nM): 42.2
